protocolDetails: Study KAR5585-101 Part 1 (SAD): plasma pharmacokinetics after a single oral dose of KAR5585, fasting and fed (incl. dose proportionality and food effect)
recordedConditions: human, plasma, po, 400 mg, t1/2, KAR5417 after 400 mg KAR5585 single oral, fasted, Cohort 3A; Mean
reportedEndpoint: half-life

**Q:** What value of half-life has been recorded for this entry: Nc1nc(O[C@H](c2ccc(Cl)cc2-c2ccccc2)C(F)(F)F)cc(N2CCC3(CC2)CN[C@H](C(=O)O)C3)n1
**A:** 11.3 h
